// data source = paper PMC8456950

Target: Human D2R (Homo sapiens)
Sequence (P14416 whole entry): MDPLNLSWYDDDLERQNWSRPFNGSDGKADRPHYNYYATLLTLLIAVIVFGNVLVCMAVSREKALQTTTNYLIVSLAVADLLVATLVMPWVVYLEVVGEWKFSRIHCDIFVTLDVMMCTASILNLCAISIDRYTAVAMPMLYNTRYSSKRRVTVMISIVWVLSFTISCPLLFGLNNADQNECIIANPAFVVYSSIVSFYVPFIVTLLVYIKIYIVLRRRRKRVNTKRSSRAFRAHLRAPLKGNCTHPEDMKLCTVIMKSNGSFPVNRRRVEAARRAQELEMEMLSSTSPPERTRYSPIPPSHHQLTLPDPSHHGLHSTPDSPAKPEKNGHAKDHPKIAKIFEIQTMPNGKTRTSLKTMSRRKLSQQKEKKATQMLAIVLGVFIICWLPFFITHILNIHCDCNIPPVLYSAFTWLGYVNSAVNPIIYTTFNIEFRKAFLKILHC
Experiment: D2R functional cAMP (HTRF) assay in CHO-D2 #S20 cells
Details: cAMP HTRF, CHO-D2 cells, forskolin 10 µM, mean±SEM n=3
Below: a set of entries, each annotated with reported EC50.
Give your result as the value with the unit written after it.

>>> test_result("CCCN(CCCCC(=O)Nc1nc2c(OC)cccc2s1)C1Cc2ccccc2C1 [Compound 26]")
"0.99 µM"
>>> test_result("COc1cccc2sc(NC(=O)CCCCN(C)C3Cc4ccccc4C3)nc12 [Compound 18]")
"26 µM"
>>> test_result("CCCN(CCCCC(=O)Nc1nc2c(Br)cccc2s1)C1Cc2ccccc2C1 [Compound 27]")
"0.18 µM"

[ask] Lab request: please report EC50 under test system Human D2R (Homo sapiens) for CN(CCCCC(=O)Nc1nc2c(Cl)cccc2s1)C1Cc2ccccc2C1 [Compound 19]
[reply] 23 µM

[ask] Queued: Cc1cccc2sc(NC(=O)CCCN(C)C3Cc4ccccc4C3)nc12 [Compound 31]
[reply] 5.2 µM

[ask] Queued: CN(CCCCC(=O)Nc1nc2c(Br)cccc2s1)C1Cc2ccccc2C1 [Compound 20]
[reply] 1.5 µM

[ask] Queued: CCCN(CCCCC(=O)Nc1nc2c(OC)ccc(C)c2s1)C1Cc2ccccc2C1 [Compound 29]
[reply] 0.98 µM

[ask] Queued: CCN(CCC(=O)Nc1nc2c(OC)ccc(OC)c2s1)C1Cc2ccccc2C1 [Compound 40]
[reply] 8.9 µM
